Data provenance: patent US20020026053A1

Listed here are molecules together with their documented Flk Kinase % Inhibition (P.110).
Tested on: FLK-1 receptor
Assay: FLK-1 Assay (cellular/catalytic ELISA, VEGF-stimulated phosphotyrosine)
Format: cell-based
Parameters: concentration or dose not given beside the values
Settings: protocol P.110

# molecule, Flk Kinase % Inhibition (P.110), %
records = [
    ("O=C1Nc2ccc(S(=O)(=O)N3CCOCC3)cc2C1=CC1COc2ccccc2O1 (stereo not shown)", 8.7),
    ("O=C1Nc2ccc(S(=O)(=O)Nc3ccc(C(F)(F)F)cc3)cc2C1=Cc1cc(Br)cs1", 11.8),
    ("CNS(=O)(=O)c1ccc2c(c1)C(=Cc1cc(C)ccc1C)C(=O)N2", 12.9),
    ("O=C1Nc2ccc(S(=O)(=O)Nc3ccc(C(F)(F)F)cc3)cc2C1=Cc1cc(O)cc(O)c1", 43.4),
]
